# TESTED ON: HLA-B*07:02 (Homo sapiens, UniProt P01889)
# Type: binding
# DETAILS: percent relative the binding of positive control peptide […]; duplicated experiments; positive binder >40%
VALUE TYPE: Bind B*07:02 (%)
The figure you give is taken to be in %; do not add the unit.

INPUT: Hello, I am looking for reported Bind B*07:02 with HLA-B*07:02 (Homo sapiens, UniProt P01889) for `KFQDAYNAA` . Could you help?
OUTPUT: 0

INPUT: Let us now turn to `MKGDLQSSL`
OUTPUT: 17

INPUT: Also, `YWGAQLNAM` please.
OUTPUT: 12

INPUT: Next up: KLVANNT RL
OUTPUT: 43

INPUT: And `PTQQIPKLV` ?
OUTPUT: 5

INPUT: Queued: `VQFQSGGNN`
OUTPUT: 0

INPUT: What about this substance? SGSEAYQGV [Rv3875_46–54]
OUTPUT: 9

INPUT: Please do the same for `VRSSNLKFQ` as well.
OUTPUT: 10

INPUT: Repeat with `AYHPQQFIY`
OUTPUT: 0

INPUT: Now the same for QQWNFAGIE [Rv3875_4–12]
OUTPUT: 1

INPUT: Do the same for `MGRDIKVQF` please
OUTPUT: 41

INPUT: Next record, please: `LAMGDAGGY`
OUTPUT: 2

INPUT: Then what about the substance `NNSPAVYLL` ?
OUTPUT: 0

INPUT: Same question for `NFVRSSNLK` please.
OUTPUT: 0

INPUT: Subsequent entry: `QLNAMKGDL`
OUTPUT: 49

INPUT: Next: SFYSDW YSP
OUTPUT: 0

INPUT: Now give it for `AMILAAYHP` too.
OUTPUT: 1

INPUT: Also, LQNLARTIS [Rv3875_69–77] please.
OUTPUT: 10

INPUT: Param item: `SPAVYLLDG`
OUTPUT: 0

INPUT: Subsequent entry: `CGNGTPNEL`
OUTPUT: 0

INPUT: Then what about the substance `GGNNSPAVY` ?
OUTPUT: 0

INPUT: Ok, now `VFNFPPNGT`
OUTPUT: 0

INPUT: Now try MW GPSSDPA .
OUTPUT: 3

INPUT: And the next one, `QQIPKLVAN` ?
OUTPUT: 2

INPUT: Repeat with `AAGGHNAVF`
OUTPUT: 9

INPUT: Thanks! And DW YSPACGK ?
OUTPUT: 0

INPUT: Try `AEFLENFVR` next.
OUTPUT: 0

INPUT: Next substance up: ATELNNALQ [Rv3875_62–70]
OUTPUT: 12

INPUT: Now the substance `VYCGNGTPN`
OUTPUT: 3

INPUT: Please do the same for CGKAGCQT Y as well.
OUTPUT: 8

INPUT: What about `SSNLKFQDA` ?
OUTPUT: 0

INPUT: For RTISEAGQA [Rv3875_74–82] then?
OUTPUT: 11

INPUT: Please answer likewise for VQQKWDATA [Rv3875_54–62]
OUTPUT: 9

INPUT: What do we get for `AVYLLDGLR` ?
OUTPUT: 0

INPUT: Next up: `ANNTRLWVY`
OUTPUT: 9

INPUT: Same for AGCQTYKW E
OUTPUT: 2

INPUT: Further, for ALQNLARTI [Rv3875_68–76] ?
OUTPUT: 8

INPUT: Also `AGGYKAADM` , if possible.
OUTPUT: 0

INPUT: Try this substance too: `FLTSELPQW`
OUTPUT: 8

INPUT: Next entry: `YAGSLSALL`
OUTPUT: 41

INPUT: Then what about the substance WGGSGSEAY [Rv3875_43–51] ?
OUTPUT: 7
